Ref: the supplement of paper PMC10065799

Biological target: SHP2-C SH2;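 also: peptide library displayed on the E. coli surface as eCPX fusions, selected cells deep-sequenced, score is each peptide's frequency after selection divided by its frequency in the input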
Assay: SH2 binding enrichment of the phosphorylated peptide, bacterial display (enrichment ratio); higher = better substrate or ligand; peptides without Tyr show the background
measuredEndpoint: SH2 binding enrichment

Consider the reported SH2 binding enrichment for these sequences:
INSERT INTO assay_data (biosequence, value) VALUES
  ('EAEPFYCSLRD [NPHS1_Y1139_R1140C_YF]', 0.616),
  ('QDKDLYPCPGT [RLF_Y671_R668K]', 0.801),
  ('TNLVPYPCIHF [TUBA1A_Y262_R264C]', 0.802),
  ('CTTIHYNFMCD [TP53_Y234_N239D_YF]', 1.85),
  ('ETAENYLGHTA [HSPA9_Y181]', 0.588),
  ('GGQVFHNSEFG [FLT4_Y1333_Y1333H_YF]', 0.714);

(I) FQEKGYNKELR [CHRND_Y38]
(II) VAMELYVFRGV [GAN_Y471_G474R]
(III) QLYGAYLRIHA [BSCL2_Y213]
Query: Which order do these items take when sorted by rising SH2 binding enrichment? List them. Output the labels ranked as instructed.
Result: II, I, III
(II: 0.567, I: 0.882, III: 1.35)

(I) TVLEHYRRTHC [MYBPC3_Y1119]
(II) TKQLTYEEQFL [PIK3C3_Y310_D314Y_YF]
(III) HSFNSYTFPRL [PAK5_Y316_YF]
Query: Which order do these items take when sorted by rising SH2 binding enrichment? List them. Output the labels ranked as instructed.
Result: III, II, I

---

Target: FGFR3 (UniProt P22607)
Sequence (P22607 whole entry, looked up): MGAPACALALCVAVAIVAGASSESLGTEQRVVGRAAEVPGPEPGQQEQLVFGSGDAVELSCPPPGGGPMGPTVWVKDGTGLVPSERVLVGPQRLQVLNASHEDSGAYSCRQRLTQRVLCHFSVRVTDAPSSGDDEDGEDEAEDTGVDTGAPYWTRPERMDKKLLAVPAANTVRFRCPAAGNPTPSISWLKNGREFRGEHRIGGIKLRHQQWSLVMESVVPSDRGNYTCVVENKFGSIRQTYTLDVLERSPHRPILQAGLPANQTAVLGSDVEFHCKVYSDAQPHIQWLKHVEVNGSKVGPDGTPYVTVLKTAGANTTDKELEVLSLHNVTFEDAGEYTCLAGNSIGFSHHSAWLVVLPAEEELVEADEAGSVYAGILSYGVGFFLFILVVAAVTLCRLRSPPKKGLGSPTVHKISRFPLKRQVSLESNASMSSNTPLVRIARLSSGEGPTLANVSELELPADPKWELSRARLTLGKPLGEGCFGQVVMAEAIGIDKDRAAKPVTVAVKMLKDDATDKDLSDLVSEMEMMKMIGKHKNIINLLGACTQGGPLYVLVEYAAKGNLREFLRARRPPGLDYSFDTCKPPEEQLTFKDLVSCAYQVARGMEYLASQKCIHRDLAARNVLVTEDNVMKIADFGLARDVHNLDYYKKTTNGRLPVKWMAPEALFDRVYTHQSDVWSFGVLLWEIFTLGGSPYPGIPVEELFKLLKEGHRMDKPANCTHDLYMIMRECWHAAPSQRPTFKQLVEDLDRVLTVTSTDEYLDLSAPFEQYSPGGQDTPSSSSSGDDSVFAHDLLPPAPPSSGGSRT
Test: phosphorylation enrichment, bacterial display (enrichment ratio); higher = better substrate or ligand; peptides without Tyr show the background
measuredEndpoint: phosphorylation enrichment
Lab note: write the figure by itself, no unit.

Consider the reported phosphorylation enrichment for these sequences:
INSERT INTO assay_data (biosequence, value) VALUES
  ('ADLAKYICENR [ALB_Y287_Q292R]', 0.691),
  ('APGNAYGDAGY [SYP_Y250_D248N]', 0.512),
  ('DKATEYSQFMR [MAX_Y70_I71S_YF]', 0.397),
  ('LSRDVYEEDSF [RET_Y900_YF]', 0.89),
  ('NFRTTCVNANE [KCNH2_Y475_Y475C]', 0.619),
  ('IGSHAYGDQFR [IDH1_Y135_R132S_YF]', 0.51),
  ('LLKAGYQGVLR [TTPA_Y100_H101Q]', 0.565),
  ('VKANTYEKFWL [GATM_Y100_P105L_YF]', 0.722);

// sample QGIYGYHHHMQ [UFSP2_Y287_Y290H] , its phosphorylation enrichment was 0.653

// sample HSFQCYGRNEA [ENTPD3_Y262] , its phosphorylation enrichment was 1.18

// sample HRNGMYGLHQD [SGSH_Y89_Q85R] , its phosphorylation enrichment was 0.421

// sample DSNLIYSQIWS [FCRL3_Y662_P660L] , its phosphorylation enrichment was 6.79

---

# Lookup of reported phosphorylation enrichment keyed by entry
Tested on: c-Abl (mouse)
Assay: phosphorylation enrichment, bacterial display (enrichment ratio); higher = better substrate or ligand; peptides without Tyr show the background
Lab note: write the figure by itself, no unit.

INSERT INTO assay_data (biosequence, value) VALUES
  ('LKGQVYILGWE [ASS1_Y359_R363W]', 0.804),
  ('RHIEKYVDQGK [IRAK3_Y61]', 0.783),
  ('EGNERYEGFCV [GRIA3_Y451_YF]', 0.783),
  ('SDFFAYSPVRE [H6PD_Y449_YF]', 0.615),
  ('PASLSYLSFEG [EXOSC3_Y143]', 0.619);

// sample QGIYGYHHHMQ [UFSP2_Y287_Y290H] , its phosphorylation enrichment was 4.62
